assay-protocol: Stability in rat heart assessed as half life measured upto 120 mins
Format: ADME, tissue-based
Starred links: 1 amine or outer side, 2 acyl side, 3 side chain; linkers in the order of their positions; H or OH if unused. Positions of bridges follow the written chain, without caps; N, C: chain ends. Non-standard residues stand in square brackets, D forms with d. Residues, ends and D or L forms follow the SMILES beside them. *: point of attachment. DAMPA = CN(Cc1cnc2nc(N)nc(N)c2n1)c1ccc(C(=O)*)cc1; γGlu = O=C(O)[C@H](CCC(=O)[*:2])N[*:1]; Pen = CC(C)(S)[C@H](N)C(=O)O

molecule | readout-unit | half-life
CC(C)C[C@@H]1NC(=O)[C@H](C(C)C)NC(=O)[C@H](CO)NC(=O)CNC(=O)CNC(=O)[C@H](CCCNC(=N)N)NC(=O)[C@@H]2CCCN2C(=O)[C@@H](NC(=O)CC[C@H](NC(=O)c2ccc(N(C)Cc3cnc4nc(N)nc(N)c4n3)cc2)C(=O)O)C(C)(C)SSC[C@@H](C(=O)O)NC(=O)CNC(=O)[C@H]([C@@H](C)O)NC(=O)[C@H](C(C)C)NC1=O ({DAMPA-γGlu}-[Pen]PRGGSVLVTGC-OH; disulfide 1-12) | min | 38.1
